Data origin: PubChem BioAssay AID1963970

# Test system: 931267-113-T-J1-PDC multicell spheroid viability
# Assay method text: Anticancer human tumor 931267-113-T-J1-PDC patient-derived colon adenocarcinoma cell line growth inhibition [PI3K]
# Run parameters: curve of first compound; second compound 0.01 µM
This listing pairs compounds with measured IC50.
Measured quantity: IC50

1. CC(=O)c1c(C)c2cnc(Nc3ccc(N4CCNCC4)cn3)nc2n(C2CCCC2)c1=O + COc1c(OCCCN2CCOCC2)ccc2c3n(c(=NC(=O)c4cnc(N)nc4)nc12)CCN3
> 100 nM
2. CC(C)n1nc(-c2ccc3oc(N)nc3c2)c2c(N)ncnc21 + CC(Nc1ccc2c(c1)OCCn1cc(N3C(=O)OCC3C(F)F)nc1-2)C(N)=O
> 100 nM
3. CC(C)NCC(C(=O)N1CCN(c2ncnc3c2C(C)CC3O)CC1)c1ccc(Cl)cc1 (stereo not drawn) + CC(Nc1ccc2c(c1)OCCn1cc(N3C(=O)OCC3C(F)F)nc1-2)C(N)=O
> 10000 nM
4. C[C@@H](NC(=O)c1ncnc(N)c1Cl)c1ncc(C(=O)Nc2cc(C(F)(F)F)c(Cl)cn2)s1 + COc1c(OCCCN2CCOCC2)ccc2c3n(c(=NC(=O)c4cnc(N)nc4)nc12)CCN3
> 10000 nM
5. CC(C)n1nc(-c2ccc3oc(N)nc3c2)c2c(N)ncnc21 + COc1c(OCCCN2CCOCC2)ccc2c3n(c(=NC(=O)c4cnc(N)nc4)nc12)CCN3
91.6 nM
6. CC(Cn1ccc(-c2ccc(C#N)c(Cl)c2)n1)NC(=O)c1cc(C(C)O)[nH]n1 (stereo not drawn) + COc1c(OCCCN2CCOCC2)ccc2c3n(c(=NC(=O)c4cnc(N)nc4)nc12)CCN3
> 10000 nM
7. Cn1ncc(Cl)c1-c1cc(C(=O)NC(CN)Cc2cccc(F)c2)sc1Cl (stereo not drawn) + CC(Nc1ccc2c(c1)OCCn1cc(N3C(=O)OCC3C(F)F)nc1-2)C(N)=O
5260 nM
8. Cn1cnc2c(F)c(Nc3ccc(Br)cc3Cl)c(C(=O)NOCCO)cc21 + COc1c(OCCCN2CCOCC2)ccc2c3n(c(=NC(=O)c4cnc(N)nc4)nc12)CCN3
81 nM

###

This listing pairs compounds with measured viability, T/C.
# System: 931267-113-T-J1-PDC multicell spheroid viability
# Assay method text: Anticancer human tumor 931267-113-T-J1-PDC cell line growth inhibition [PI3K];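 also: viability read 7 days after compound addition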
# Run parameters: second compound 0.316 µM; first compound 0.1 µM; stronger effect = lower value
# Excerpt: Combinatorial screen of targeted agents with the PI3K inhibitors inavolisib, alpelisib, duvelisib, and copanlisib in multi-cell type tumor spheroids A high-throughput screen of multi-cell type tumor spheroids was designed to identify active combinations of targeted small molecules and PI3K pathway inhibitors. […] Compounds. […] If the clinical Cmax for an agent had not been determined, the highest concentration tested was 10 microM. […]
Measured quantity: viability, T/C (%)

1) CC(C)n1nc(-c2ccc3oc(N)nc3c2)c2c(N)ncnc21 + Cc1nc(NC(=O)N2CCCC2C(N)=O)sc1-c1ccnc(C(C)(C)C(F)(F)F)c1
41.5
2) CC(=O)c1c(C)c2cnc(Nc3ccc(N4CCNCC4)cn3)nc2n(C2CCCC2)c1=O + COc1c(OCCCN2CCOCC2)ccc2c3n(c(=NC(=O)c4cnc(N)nc4)nc12)CCN3
37.5
3) CC(=O)c1c(C)c2cnc(Nc3ccc(N4CCNCC4)cn3)nc2n(C2CCCC2)c1=O + CC(Nc1ncnc2nc[nH]c12)c1cc2cccc(Cl)c2c(=O)n1-c1ccccc1
94.6

###

# Tested on: 931267-113-T-J1-PDC multicell spheroid viability
# Assay method text: Anticancer human tumor 931267-113-T-J1-PDC cell line growth inhibition [PI3K];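 also: viability read 7 days after compound addition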
# Run parameters: second compound 0.316 µM; first compound 0.1 µM; stronger effect = lower value
Measured quantity: viability, T/C (%)

1) C=CC(=O)N1CCN(c2nc(=O)n(-c3c(C)ccnc3C(C)C)c3nc(-c4c(O)cccc4F)c(F)cc23)C(C)C1 (stereo not drawn) + CC(Nc1ccc2c(c1)OCCn1cc(N3C(=O)OCC3C(F)F)nc1-2)C(N)=O
87.1
2) CCCS(=O)(=O)Nc1ccc(F)c(C(=O)c2c[nH]c3ncc(-c4ccc(Cl)cc4)cc23)c1F + CC(Nc1ccc2c(c1)OCCn1cc(N3C(=O)OCC3C(F)F)nc1-2)C(N)=O
86.5
3) CC(C)NCC(C(=O)N1CCN(c2ncnc3c2C(C)CC3O)CC1)c1ccc(Cl)cc1 (stereo not drawn) + CC(Nc1ccc2c(c1)OCCn1cc(N3C(=O)OCC3C(F)F)nc1-2)C(N)=O
84.5

###

# Tested on: 931267-113-T-J1-PDC multicell spheroid viability
# Assay method text: Anticancer human tumor 931267-113-T-J1-PDC cell line growth inhibition [PI3K];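 also: viability read 7 days after compound addition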
# Run parameters: second compound 0.316 µM; first compound 0.1 µM; stronger effect = lower value
This listing pairs compounds with measured viability, T/C.
Measured quantity: viability, T/C (%)

1) C[C@@H](NC(=O)c1ncnc(N)c1Cl)c1ncc(C(=O)Nc2cc(C(F)(F)F)c(Cl)cn2)s1 + COc1c(OCCCN2CCOCC2)ccc2c3n(c(=NC(=O)c4cnc(N)nc4)nc12)CCN3
58.8
2) CC1(C)CCC(Nc2ncc(C(F)(F)F)c(-c3c[nH]c4c(P(C)(C)=O)c(C#N)ccc34)n2)CN1 (stereo not given) + Cc1nc(NC(=O)N2CCCC2C(N)=O)sc1-c1ccnc(C(C)(C)C(F)(F)F)c1
79
3) CC(Cn1ccc(-c2ccc(C#N)c(Cl)c2)n1)NC(=O)c1cc(C(C)O)[nH]n1 (stereo not given) + COc1c(OCCCN2CCOCC2)ccc2c3n(c(=NC(=O)c4cnc(N)nc4)nc12)CCN3
44.1
4) C[C@@H](NC(=O)c1ncnc(N)c1Cl)c1ncc(C(=O)Nc2cc(C(F)(F)F)c(Cl)cn2)s1 + CC(Nc1ccc2c(c1)OCCn1cc(N3C(=O)OCC3C(F)F)nc1-2)C(N)=O
97.5
5) C#Cc1c(F)ccc2cc(O)cc(-c3ncc4c(N5CC6CCC(C5)N6)nc(OCC56CCCN5CC(F)C6)nc4c3F)c12 (stereo not given) + CC(Nc1ccc2c(c1)OCCn1cc(N3C(=O)OCC3C(F)F)nc1-2)C(N)=O
56.4

###

This listing pairs molecules with measured viability, T/C.
# Tested on: 931267-113-T-J1-PDC multicell spheroid viability
# Assay method text: Anticancer human tumor 931267-113-T-J1-PDC cell line growth inhibition [PI3K];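 also: viability read 7 days after compound addition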
# Run parameters: second compound 0.00316 µM; first compound 0.316 µM; stronger effect = lower value
Measured quantity: viability, T/C (%)

1. C#Cc1c(F)ccc2cc(O)cc(-c3ncc4c(N5CC6CCC(C5)N6)nc(OCC56CCCN5CC(F)C6)nc4c3F)c12 (stereo not given) + CC(Nc1ccc2c(c1)OCCn1cc(N3C(=O)OCC3C(F)F)nc1-2)C(N)=O
49
2. CCN1CCN(Cc2ccc(Nc3ncc(F)c(-c4cc(F)c5nc(C)n(C(C)C)c5c4)n3)nc2)CC1 + CC(Nc1ccc2c(c1)OCCn1cc(N3C(=O)OCC3C(F)F)nc1-2)C(N)=O
99.3
3. CC1(C)CCC(CN2CCN(c3ccc(C(=O)NS(=O)(=O)c4ccc(NCC5CCOCC5)c([N+](=O)[O-])c4)c(Oc4cnc5[nH]ccc5c4)c3)CC2)=C(c2ccc(Cl)cc2)C1 + CC(Nc1ccc2c(c1)OCCn1cc(N3C(=O)OCC3C(F)F)nc1-2)C(N)=O
105
4. Cn1ncc(Cl)c1-c1cc(C(=O)NC(CN)Cc2cccc(F)c2)sc1Cl (stereo not given) + COc1c(OCCCN2CCOCC2)ccc2c3n(c(=NC(=O)c4cnc(N)nc4)nc12)CCN3
89.5
5. CC(C)NCC(C(=O)N1CCN(c2ncnc3c2C(C)CC3O)CC1)c1ccc(Cl)cc1 (stereo not given) + COc1c(OCCCN2CCOCC2)ccc2c3n(c(=NC(=O)c4cnc(N)nc4)nc12)CCN3
94.3

###

# System: 931267-113-T-J1-PDC multicell spheroid viability
# Assay method text: Anticancer human tumor 931267-113-T-J1-PDC cell line growth inhibition [PI3K];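 also: viability read 7 days after compound addition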
# Run parameters: second compound 3.16 µM; first compound 0.0316 µM; stronger effect = lower value
Measured quantity: viability, T/C (%)

1) C=CC(=O)N1CCN(c2nc(=O)n(-c3c(C)ccnc3C(C)C)c3nc(-c4c(O)cccc4F)c(F)cc23)C(C)C1 (stereo not given) + Cc1nc(NC(=O)N2CCCC2C(N)=O)sc1-c1ccnc(C(C)(C)C(F)(F)F)c1
66.3
2) Cn1ncnc1[C@H]1c2n[nH]c(=O)c3cc(F)cc(c23)N[C@@H]1c1ccc(F)cc1 + CC(Nc1ncnc2nc[nH]c12)c1cc2cccc(Cl)c2c(=O)n1-c1ccccc1
112
3) CC1(C)CCC(CN2CCN(c3ccc(C(=O)NS(=O)(=O)c4ccc(NCC5CCOCC5)c([N+](=O)[O-])c4)c(Oc4cnc5[nH]ccc5c4)c3)CC2)=C(c2ccc(Cl)cc2)C1 + Cc1nc(NC(=O)N2CCCC2C(N)=O)sc1-c1ccnc(C(C)(C)C(F)(F)F)c1
73.2
4) CCN1CCN(Cc2ccc(Nc3ncc(F)c(-c4cc(F)c5nc(C)n(C(C)C)c5c4)n3)nc2)CC1 + CC(Nc1ncnc2nc[nH]c12)c1cc2cccc(Cl)c2c(=O)n1-c1ccccc1
86.8
5) CC(=O)c1c(C)c2cnc(Nc3ccc(N4CCNCC4)cn3)nc2n(C2CCCC2)c1=O + CC(Nc1ncnc2nc[nH]c12)c1cc2cccc(Cl)c2c(=O)n1-c1ccccc1
103
